Recorded EC50, one value per entry.
- Tested on: Streptococcus
- run.description: GAS UMAA2166 growth inhibition – luminescence, BacTiterGlo, counter-screen for streptokinase expression inhibitor project, dose response (AID 1915);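 note: potency for reduction of bacterial viability or growth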
- Assay type: functional, organism-based
The source made the active and inactive calls.

compound | assay.metric | experimental.value
CC[n+]1c(/C=C/N(C)c2ccccc2)n(-c2ccccc2)c2ccc(-c3nc4ccccc4s3)cc21 | EC50 | 12 µM (active)
Clc1ccc(C2C3=C(Nc4ncnn42)c2ccccc2CC3)cc1 (stereo not drawn) | EC50 | 43.2 µM (active)

Shift focus to the following entry.
Item O=C1C=CC(=O)N1CCNc1ncc(C(F)(F)F)cc1Cl : provide EC50
> 150 µM (not active)

* * *

- experimental.system: Exodeoxyribonuclease V (Escherichia coli (strain K12), UniProt P04993+P07648+P08394)
- Sequence (P04993 whole entry): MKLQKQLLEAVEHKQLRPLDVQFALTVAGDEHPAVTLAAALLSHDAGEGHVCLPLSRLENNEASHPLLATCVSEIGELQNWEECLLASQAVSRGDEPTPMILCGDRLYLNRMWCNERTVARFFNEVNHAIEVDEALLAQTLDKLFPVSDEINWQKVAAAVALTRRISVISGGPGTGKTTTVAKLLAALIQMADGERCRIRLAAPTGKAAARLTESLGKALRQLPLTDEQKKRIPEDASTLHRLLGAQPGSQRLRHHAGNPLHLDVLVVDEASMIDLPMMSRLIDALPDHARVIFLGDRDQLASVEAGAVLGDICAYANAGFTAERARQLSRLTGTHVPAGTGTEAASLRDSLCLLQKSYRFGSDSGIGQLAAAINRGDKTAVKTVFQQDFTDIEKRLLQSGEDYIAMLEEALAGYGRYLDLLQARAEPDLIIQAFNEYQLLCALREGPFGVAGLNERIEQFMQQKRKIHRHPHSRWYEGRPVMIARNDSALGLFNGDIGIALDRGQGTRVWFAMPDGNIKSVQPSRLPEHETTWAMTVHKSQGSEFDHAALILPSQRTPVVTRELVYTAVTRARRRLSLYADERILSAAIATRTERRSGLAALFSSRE
- Sequence (P07648 whole entry): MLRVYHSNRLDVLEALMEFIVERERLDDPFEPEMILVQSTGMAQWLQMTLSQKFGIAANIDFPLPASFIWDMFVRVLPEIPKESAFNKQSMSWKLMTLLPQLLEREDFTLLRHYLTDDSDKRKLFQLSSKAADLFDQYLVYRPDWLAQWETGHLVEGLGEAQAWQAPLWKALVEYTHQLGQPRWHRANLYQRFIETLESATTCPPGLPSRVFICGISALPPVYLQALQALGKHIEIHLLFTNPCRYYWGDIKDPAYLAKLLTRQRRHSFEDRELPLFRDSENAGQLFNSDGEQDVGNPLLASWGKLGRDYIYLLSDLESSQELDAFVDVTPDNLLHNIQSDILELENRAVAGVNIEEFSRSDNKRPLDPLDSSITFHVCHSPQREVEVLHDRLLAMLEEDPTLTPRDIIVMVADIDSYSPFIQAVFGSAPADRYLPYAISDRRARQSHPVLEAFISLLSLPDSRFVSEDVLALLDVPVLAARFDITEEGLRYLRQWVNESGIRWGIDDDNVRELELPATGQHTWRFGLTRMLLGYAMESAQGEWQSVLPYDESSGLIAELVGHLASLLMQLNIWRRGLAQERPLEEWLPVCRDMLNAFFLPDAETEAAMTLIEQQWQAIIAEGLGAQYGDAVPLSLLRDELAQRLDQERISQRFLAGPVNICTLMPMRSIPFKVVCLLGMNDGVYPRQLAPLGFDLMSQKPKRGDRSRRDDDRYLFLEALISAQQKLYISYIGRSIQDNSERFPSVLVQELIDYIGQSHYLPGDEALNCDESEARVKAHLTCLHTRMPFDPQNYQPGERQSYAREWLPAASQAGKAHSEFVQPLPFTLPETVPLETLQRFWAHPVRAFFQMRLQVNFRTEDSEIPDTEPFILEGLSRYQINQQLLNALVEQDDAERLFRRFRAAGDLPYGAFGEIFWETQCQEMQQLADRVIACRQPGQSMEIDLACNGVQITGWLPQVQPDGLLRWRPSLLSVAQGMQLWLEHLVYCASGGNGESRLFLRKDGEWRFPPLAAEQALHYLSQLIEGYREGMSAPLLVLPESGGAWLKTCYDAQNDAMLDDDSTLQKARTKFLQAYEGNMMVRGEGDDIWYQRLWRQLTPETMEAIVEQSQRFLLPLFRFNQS
- Sequence (P08394 whole entry): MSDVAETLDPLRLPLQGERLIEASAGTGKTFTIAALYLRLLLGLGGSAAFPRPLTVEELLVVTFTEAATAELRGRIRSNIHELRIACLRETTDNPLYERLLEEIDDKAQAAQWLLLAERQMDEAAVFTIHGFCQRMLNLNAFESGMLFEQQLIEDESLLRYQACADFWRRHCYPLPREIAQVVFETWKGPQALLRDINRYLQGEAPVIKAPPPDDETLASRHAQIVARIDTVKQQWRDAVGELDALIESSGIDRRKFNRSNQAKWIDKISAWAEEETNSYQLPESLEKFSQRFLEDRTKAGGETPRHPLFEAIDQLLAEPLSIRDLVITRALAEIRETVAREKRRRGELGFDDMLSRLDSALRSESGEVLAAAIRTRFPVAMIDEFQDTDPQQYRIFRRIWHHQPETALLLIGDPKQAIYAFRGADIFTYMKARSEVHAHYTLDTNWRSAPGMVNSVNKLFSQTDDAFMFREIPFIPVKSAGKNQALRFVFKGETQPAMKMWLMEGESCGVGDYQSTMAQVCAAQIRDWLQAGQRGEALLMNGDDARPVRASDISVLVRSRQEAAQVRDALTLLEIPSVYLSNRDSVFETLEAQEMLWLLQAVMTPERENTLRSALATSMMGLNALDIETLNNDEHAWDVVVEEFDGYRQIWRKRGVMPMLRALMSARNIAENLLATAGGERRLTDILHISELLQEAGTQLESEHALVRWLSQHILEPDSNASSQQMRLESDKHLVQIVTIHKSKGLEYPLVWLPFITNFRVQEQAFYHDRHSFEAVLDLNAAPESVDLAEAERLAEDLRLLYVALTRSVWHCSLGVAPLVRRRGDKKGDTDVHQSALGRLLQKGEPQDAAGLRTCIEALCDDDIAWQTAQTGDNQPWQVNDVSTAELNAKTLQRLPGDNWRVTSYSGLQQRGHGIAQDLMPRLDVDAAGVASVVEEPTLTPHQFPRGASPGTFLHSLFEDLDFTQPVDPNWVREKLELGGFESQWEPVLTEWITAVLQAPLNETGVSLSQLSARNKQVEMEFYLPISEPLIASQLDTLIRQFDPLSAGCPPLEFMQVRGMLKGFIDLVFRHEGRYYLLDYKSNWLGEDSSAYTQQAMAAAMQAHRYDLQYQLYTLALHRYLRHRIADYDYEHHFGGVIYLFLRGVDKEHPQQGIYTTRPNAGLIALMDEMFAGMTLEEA
- run.description: RecBCD inhibition via phage-restricted bacterial growth – absorbance, V66 E. coli, mutant T4 phage, counter-screen for AddAB inhibitor project, dose response (AID 492957)
- Type: functional, cell-based, Escherichia coli str. K-12 substr. MG1655
Activity calls are given as the source filed them.
Recorded IC50, one value per entry.

compound.structure | experimental.system | IC50
COCC/N=c1\scc(-c2cccs2)n1/N=C/c1ccc(O)c(O)c1O | Exodeoxyribonuclease V (Escherichia coli (strain K12), UniProt P04993+P07648+P08394) | > 119 µM (inactive)
CC(C)Oc1ccc(Cc2cnc(N)nc2N)cc1 | Exodeoxyribonuclease V (Escherichia coli (strain K12), UniProt P04993+P07648+P08394) | 56.3 µM (inactive)
c1ccc(-c2cc(CSc3nc4ccccc4[nH]3)on2)cc1 | Exodeoxyribonuclease V (Escherichia coli (strain K12), UniProt P04993+P07648+P08394) | > 119 µM (inactive)

Shift focus to the following entry.
Item CC1(C)OC(=O)C(N=Nc2ccc(O)cc2)=C(O)O1 : provide IC50
> 119 µM (inactive)

* * *

Recorded IC50, one value per entry.
- experimental.system: Type-1 angiotensin II receptor (Homo sapiens, UniProt P30556)
- Sequence (P30556 whole entry): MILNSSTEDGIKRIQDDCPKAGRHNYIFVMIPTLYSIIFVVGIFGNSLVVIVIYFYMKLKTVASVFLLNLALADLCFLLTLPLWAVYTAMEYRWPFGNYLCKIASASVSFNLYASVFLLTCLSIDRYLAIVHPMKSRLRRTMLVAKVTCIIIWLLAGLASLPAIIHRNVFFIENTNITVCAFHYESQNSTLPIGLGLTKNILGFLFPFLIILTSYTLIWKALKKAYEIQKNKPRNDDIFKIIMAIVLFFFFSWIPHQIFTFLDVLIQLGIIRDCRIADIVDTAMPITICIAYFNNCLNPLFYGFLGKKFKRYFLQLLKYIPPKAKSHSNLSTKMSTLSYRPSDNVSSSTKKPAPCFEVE
- run.description: antagonism of angiotensin II type 1 receptor – cell-based, uHTS hits, selectivity assay for APJ receptor antagonist project, dose response (AID 463214);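 note: antagonist potency against angiotensin II stimulated AT1 response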
- Assay type: functional
The source made the active and inactive calls.

Answered cases to consult:
compound.structure | IC50
COc1ccc(C(=O)NC(=S)Nc2cccc(Cl)c2N2CCOCC2)cc1[N+](=O)[O-] | > 40 µM (not active)
O=C1OCC(CO)(CO)N=C1NNc1cc(Cl)ccc1Cl | 12.1 µM (active)
S=C(N/N=C/c1ccccc1)N1CCOCC1 | 13.3 µM (active)
COc1ccc(NC(=O)Nc2cccc3c2O[C@@H](CN(C)CC2CCCCC2)[C@@H](C)CN([C@H](C)CO)C3=O)cc1 | > 40 µM (not active)

Shift focus to the following entry.
Item Cc1ccc(C(=O)CNc2cccc(Cl)c2)cc1 : provide IC50
9.87 µM (active)

Source of measurements: ChEMBL document CHEMBL1201862
